- experimentalTarget: KRAS WT (Homo sapiens (Human), UniProt P01116+P62937)
- Sequence (P01116-2 other isoform, or with tags, fused parts or gaps): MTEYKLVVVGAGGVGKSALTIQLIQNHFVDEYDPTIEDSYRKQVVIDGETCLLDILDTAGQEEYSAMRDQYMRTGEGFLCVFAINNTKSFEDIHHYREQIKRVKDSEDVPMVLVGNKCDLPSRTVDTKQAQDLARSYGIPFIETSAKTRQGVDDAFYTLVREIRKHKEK
- Sequence (P62937 whole entry): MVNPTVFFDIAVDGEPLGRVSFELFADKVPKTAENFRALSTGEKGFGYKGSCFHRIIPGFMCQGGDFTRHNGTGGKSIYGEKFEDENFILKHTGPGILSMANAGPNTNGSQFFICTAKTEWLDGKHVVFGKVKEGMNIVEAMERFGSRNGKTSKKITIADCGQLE
- experimentNotes: Ras-Raf (BRAF RBD) disruption / FRET / MOA assay, KRAS WT
- Type: biochemical
- recordedConditions: read-out: IC50* KRAS WT FRET data
pIC50: −log10 of the molar value.
measuredMetric: pIC50

CCn1c(-c2cccnc2COC)c2c3cc(ccc31)-c1cc(O)cc(c1)C[C@H](NC(=O)[C@H](C(C)C)N(C)C(=O)C1CN(C(=O)/C=C/CN(C)C)C1)C(=O)N1CCC[C@H](N1)C(=O)OCC(C)(C)C2 :: 5.00 to 6.00
C=CC(=O)N1CC(OCC(C(=O)N[C@H]2Cc3cc(cc(C(F)F)c3)-c3ccc4c(c3)c(c(-c3cccnc3[C@H](C)OC)n4CC)CC(C)(C)COC(=O)[C@@H]3CCCN(N3)C2=O)C(C)C)C1 (mixture of isomers) :: < 5.00
C=CC(=O)N1CC[C@H](C(=O)N(C)[C@H](C(=O)N[C@H]2Cc3cccc(c3)-c3ccc4c(c3)c(c(-c3cc(C5=CCN(C)CC5)cnc3[C@H](C)OC)n4CC)CC(C)(C)COC(=O)[C@@H]3CCCN(N3)C2=O)C(C)C)C1 (atropisomer, axis not shown) [Example A514] :: < 5.00
CCn1c(-c2cccnc2[C@H](C)OC)c2c3cc(ccc31)-c1cccc(c1)C[C@H](NC(=O)[C@H](C(C)C)N(C)C(=O)[C@H]1CCN(C(=O)C#C[C@@H]3COCCN3C)C1)C(=O)N1CCC[C@H](N1)C(=O)OCC(C)(C)C2 :: 5.00 to 6.00
C=CC(=O)N1CC[C@@H](C(=O)N(C)[C@H](C(=O)N[C@H]2Cc3cc(O)cc(c3)-c3ccc4c(c3)c(c(-c3cncnc3)n4CC)CC(C)(C)COC(=O)[C@@H]3CCCN(N3)C2=O)C(C)C)O1 :: 5.00 to 6.00

Bench note: what pIC50 did C=CC(=O)N(C)C[C@H]1CCN(C(=O)N(C)[C@H](C(=O)N[C@H]2Cc3nc(cs3)-c3ccc4c(c3)c(c(-c3cccnc3[C@H](C)OC)n4CC)CC(C)(C)COC(=O)[C@@H]3CCCN(N3)C2=O)C(C)C)C1 (atropisomer, axis not shown) show? 6.00 to 7.00

Bench note: what pIC50 did C=CC(=O)N1CCO[C@H]2CCN(C(=O)N(C)[C@H](C(=O)N[C@H]3Cc4nc(cs4)-c4ccc5c(c4)c(c(-c4cccnc4[C@H](C)OC)n5CC)CC(C)(C)COC(=O)[C@@H]4CCCN(N4)C3=O)C(C)C)C[C@@H]21 (atropisomer, axis not shown) show? 7.00 to 8.00

Bench note: what pIC50 did CO[C@@H](C)c1ncccc1-c1c2c3cc(ccc3n1CC(F)(F)F)-c1cc(cc(C(F)F)c1)C[C@H](NC(=O)[C@@H](COC1CN(C(=O)C#CC(C)(C)N(C)C)C1)C(C)C)C(=O)N1CCC[C@H](N1)C(=O)OCC(C)(C)C2 (atropisomer, axis not shown) show? < 5.00

---

- experimentalTarget: NRAS Q61R (Homo sapiens (Human), UniProt P01111+P62937, Q61R)
- Sequence (P01111 whole entry Q61R, one chain of several): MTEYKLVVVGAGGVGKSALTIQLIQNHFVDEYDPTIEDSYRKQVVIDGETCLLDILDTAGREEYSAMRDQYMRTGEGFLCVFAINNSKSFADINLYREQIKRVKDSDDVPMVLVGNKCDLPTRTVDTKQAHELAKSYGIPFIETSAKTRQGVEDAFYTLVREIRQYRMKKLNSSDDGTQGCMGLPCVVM
- experimentNotes: Ras-Raf (BRAF RBD) disruption / FRET / MOA assay, NRAS Q61R
- Assay type: biochemical
- recordedConditions: NRAS Q61R; Ras-Raf disruption/FRET/MOA assay; read-out: IC50* NRAS Q61R FRET data
- Description: The purpose of this biochemical assay is to measure the ability of test compounds to facilitate ternary complex formation between a nucleotide-loaded Ras isoform and cyclophilin A; the resulting ternary complex disrupts binding to a BRAF^RBD construct, inhibiting Ras signaling through a RAF effector. […]. Compound is present in plate wells as a 10-point 3-fold dilution series starting at a final concentration of 30 μM. […]
pIC50: −log10 of the molar value.
measuredMetric: pIC50

C=CC(=O)N1CC[C@H](C(=O)N(C)[C@H](C(=O)N[C@H]2Cc3cc(CF)cc(c3)-c3ccc4c(c3)c(c(-c3cccnc3[C@H](C)OC)n4CC)CC(C)(C)COC(=O)[C@@H]3CCCN(N3)C2=O)C(C)C)C1 (atropisomer, axis not shown) [Example A503] :: 5.00 to 6.00
C=CC(=O)N1CC2(CCCN2C(=O)N(C)[C@H](C(=O)N[C@H]2Cc3nc(cs3)-c3ccc4c(c3)c(c(-c3cccnc3[C@H](C)OC)n4CC)CC(C)(C)COC(=O)[C@@H]3CCCN(N3)C2=O)C(C)C)C1 (atropisomer, axis not shown) [Example A667] :: 7.00 to 8.00
C=CC(=O)N1CC2(CCN2C(=O)N(C)[C@H](C(=O)N[C@H]2Cc3cccc(n3)-c3ccc4c(c3)c(c(-c3cccnc3[C@H](C)OC)n4CC)CC(C)(C)COC(=O)[C@@H]3CCCN(N3)C2=O)C(C)C)C1 (atropisomer, axis not shown) [Example A636] :: 6.00 to 7.00

Next compound, please.
Reported pIC50 for NRAS Q61R (Homo sapiens (Human), UniProt P01111+P62937, Q61R), given CO[C@@H](C)c1ncccc1-c1c2c3cc(ccc3n1CC(F)(F)F)N1CCO[C@@H](C[C@H](NC(=O)[C@H](C(C)C)N3CC[C@@]4(CCN(C(=O)C#CC(C)(C)N(C)C)C4)C3=O)C(=O)N3CCC[C@H](N3)C(=O)OCC(C)(C)C2)C1 (atropisomer, axis not shown) [Example A628] ? < 5.00

---

Consider the following compounds and their measured IC50 readings.
- experimentalTarget: K-Ras G13C (Homo sapiens (Human), UniProt P01116+P62937, G13C)
- Sequence (P01116-2 other isoform, or with tags, fused parts or gaps G13C, one chain of several): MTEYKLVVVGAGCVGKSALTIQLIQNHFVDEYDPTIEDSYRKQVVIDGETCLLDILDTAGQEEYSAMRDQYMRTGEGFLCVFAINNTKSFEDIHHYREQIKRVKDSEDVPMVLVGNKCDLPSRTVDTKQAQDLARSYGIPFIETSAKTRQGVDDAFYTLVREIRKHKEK
- experimentNotes: Ras-Raf (BRAF RBD) disruption / FRET / MOA assay, KRAS G13C
- Assay type: biochemical
- recordedConditions: KRAS G13C; Ras-Raf disruption/FRET/MOA assay; read-out: IC50* KRAS G13C FRET data

Would you please look over these solved cases?
CCn1c(-c2cccnc2COC)c2c3cc(ccc31)-c1cc(O)cc(c1)C[C@H](NC(=O)[C@H](C(C)C)N(C)C(=O)[C@H]1CCN(C(=O)C#CCCN3CCOCC3)C1)C(=O)N1CCC[C@H](N1)C(=O)OCC(C)(C)C2 :: 100 to 1000 nM
CCn1c(-c2cccnc2[C@H](C)OC)c2c3cc(ccc31)-c1cc(O)cc(c1)C[C@H](NC(=O)[C@H](C(C)C)N(C)C(=O)[C@H]1CCN(C(=O)C#CCN3[C@@H](C)COC[C@@H]3C)C1)C(=O)N1CCC[C@H](N1)C(=O)OCC(C)(C)C2 (atropisomer, axis not shown) :: 10 to 100 nM
C=CC(=O)N1CC[C@H](C(=O)N(C)[C@H](C(=O)N[C@H]2Cc3cc(O)cc(c3)-c3ccc4c(c3)c(c(-c3cncnc3)n4CC)CC(C)(C)COC(=O)[C@@H]3CCCN(N3)C2=O)C(C)C)O1 :: 100 to 1000 nM
C=CC(=O)N1CC[C@](F)(C(=O)N(C)[C@H](C(=O)N[C@H]2Cc3cccc(c3)-c3ccc4c(c3)c(c(-c3cccnc3[C@H](C)OC)n4CC)CC(C)(C)COC(=O)[C@@H]3CCCN(N3)C2=O)C(C)C)C1 (atropisomer, axis not shown) :: 100 to 1000 nM
CC#CC(=O)N1CC[C@H](C(=O)N(C)[C@H](C(=O)N[C@H]2Cc3nc(cs3)-c3ccc4c(c3)c(c(-c3cccnc3[C@H](C)OC)n4C(C)=O)CC(C)(C)COC(=O)[C@@H]3CCCN(N3)C2=O)C(C)C)C1 :: > 10000 nM
C=CC(=O)N1C[C@@H]2CN(C(=O)N(C)[C@H](C(=O)N[C@H]3Cc4nc(cs4)-c4ccc5c(c4)c(c(-c4cccnc4[C@H](C)OC)n5CC)CC(C)(C)COC(=O)[C@@H]4CCCN(N4)C3=O)C(C)C)C[C@@H]2C1 (atropisomer, axis not shown) :: 10 to 100 nM

Bench note: what IC50 did CCn1c(-c2cccnc2[C@H](C)OC)c2c3cc(ccc31)-c1csc(n1)C[C@H](NC(=O)[C@H](C(C)C)N(C)C(=O)N1CCC13CN(C(=O)C#CC(C)(C)N(C)C)C3)C(=O)N1CCC[C@H](N1)C(=O)OCC(C)(C)C2 (atropisomer, axis not shown) show? 1000 to 10000 nM

Bench note: what IC50 did "C=CC(=O)N1CC[C@H](C(=O)N(C)[C@H](C(=O)N[C@H]2Cc3cc(O)cc(c3)-c3ccc4c(c3)c(c(-c3cc(N5CC(OC)C5)ccn3)n4CC)CC(C)(C)COC(=O)[C@@H]3CCCN(N3)C2=O)C(C)C)C1" show? 1000 to 10000 nM

Bench note: what IC50 did C=CC(=O)N1CCOC2(C1)CN(C(=O)N(C)[C@H](C(=O)N[C@H]1Cc3cccc(c3)-c3ccc4c(c3)c(c(-c3cccnc3[C@H](C)OC)n4CC(F)(F)F)CC(C)(C)COC(=O)[C@@H]3CCCN(N3)C1=O)C(C)C)C2 (atropisomer, axis not shown) show? 10 to 100 nM
